meta.source: patent US20260007681A1

# Study target: UniProt P03372
# Assay: Western blot analysis (Compounds B1-B278)
# Format: cell-based
# Particulars: ER degradation by traditional Western blot; DC50 classes
Observed property: Traditional Western Degradation Potency

COc1nc(C2CCC(C(=O)N3CCC(N4Cc5cc6c(cc5C4)C(=O)N(C4CCC(=O)NC4=O)C6=O)CC3)CC2)ccc1[C@@H]1c2[nH]c3ccccc3c2C[C@@H](C)N1CC(F)F (some centres unmarked)
C (“C”: >100 nM)
C[C@@H]1Cc2c([nH]c3ccccc23)[C@@H](c2cnc(N3CCC4(CC3)CC(CN3Cc5cc6c(cc5C3)C(=O)N(C3CCC(=O)NC3=O)C6=O)C4)nc2)N1CC(C)(C)F (some centres unmarked)
C (“C”: >100 nM)
C[C@@H]1Cc2c([nH]c3ccccc23)[C@@H](c2ccc(N3CCC4(CCN(C(=O)CN5Cc6cc7c(cc6C5)C(=O)N(C5CCC(=O)NC5=O)C7=O)CC4)CC3)cc2F)N1CC(F)F (some centres unmarked)
B (“B”: 10-100 nM)
C[C@@H]1Cc2c([nH]c3ccccc23)[C@@H](c2c(F)cc(N3CCC(CN4CC(C(=O)N5Cc6cc7c(cc6C5)C(=O)N(C5CCC(=O)NC5=O)C7=O)C4)CC3)cc2F)N1CC(F)F (some centres unmarked)
C (“C”: >100 nM)
C[C@@H]1Cc2c([nH]c3ccccc23)[C@@H](c2c(F)cc(N3CCC(C(=O)N4CC(CN5Cc6cc7c(cc6C5)C(=O)N(C5CCC(=O)NC5=O)C7=O)C4)CC3)cc2F)N1CC(F)F (some centres unmarked)
B (“B”: 10-100 nM)

###

# Study target: ER in T47D cells (Homo sapiens (Human))
# Assay: In-cell western (ICW) ER degradation assay in T47D cells (Compounds A1-A70)
# Assay type: cell-based
# Particulars: ER degradation, T47D cells, 16 hrs treatment, 0.02 to 300 nM
Where a name gives a salt, the structure may show the parent alone.
Observed property: DC50

C[C@@H]1Cc2c([nH]c3ccccc23)[C@@H](c2cnc(N3CCC(CN4CCC5(CC4)COc4cc6c(cc45)CN(C4CCC(=O)NC4=O)C6=O)CC3)nc2)N1CC(F)(F)CO (some centres unmarked)
< 1 nM
COc1cc(N2CCC(CN3CCC(c4ccc(N[C@H]5CCC(=O)NC5=O)c(F)c4)CC3)CC2)ccc1[C@@H]1c2[nH]c3ccccc3c2C[C@@H](C)N1CC(F)F
< 1 nM
C[C@H]1Cc2c([nH]c3ccccc23)[C@H](c2cnc(N3CCC4(CC3)C[C@@H](CN3CCN5c6ccc7c(c6OC[C@@H]5C3)CN([C@@H]3CCC(=O)NC3=O)C7=O)CO4)nc2)N1CC(F)F [Compound A59, formate]
< 1 nM
C[C@@H]1Cc2c([nH]c3ccccc23)[C@H](c2cnc(N3CCC4(CC3)C[C@@H](CN3CCN5c6ccc(C(=O)N[C@H]7CCC(=O)NC7=O)nc6OC[C@H]5C3)CO4)nc2)N1CC(F)F
1 to 10 nM
C[C@@H]1Cc2c([nH]c3ccccc23)[C@@H](c2cnc(N3CCC4(CC3)CC(CN3CCC(c5ccc6c(c5)n(C)c(=O)n6C5CCC(=O)NC5=O)CC3)C4)nc2)N1CC(F)F (some centres unmarked)
< 1 nM

###

Property: DC50; scope: individual molecules
# Study target: ER (Homo sapiens (Human), UniProt P03372)
# Sequence (P03372 whole entry): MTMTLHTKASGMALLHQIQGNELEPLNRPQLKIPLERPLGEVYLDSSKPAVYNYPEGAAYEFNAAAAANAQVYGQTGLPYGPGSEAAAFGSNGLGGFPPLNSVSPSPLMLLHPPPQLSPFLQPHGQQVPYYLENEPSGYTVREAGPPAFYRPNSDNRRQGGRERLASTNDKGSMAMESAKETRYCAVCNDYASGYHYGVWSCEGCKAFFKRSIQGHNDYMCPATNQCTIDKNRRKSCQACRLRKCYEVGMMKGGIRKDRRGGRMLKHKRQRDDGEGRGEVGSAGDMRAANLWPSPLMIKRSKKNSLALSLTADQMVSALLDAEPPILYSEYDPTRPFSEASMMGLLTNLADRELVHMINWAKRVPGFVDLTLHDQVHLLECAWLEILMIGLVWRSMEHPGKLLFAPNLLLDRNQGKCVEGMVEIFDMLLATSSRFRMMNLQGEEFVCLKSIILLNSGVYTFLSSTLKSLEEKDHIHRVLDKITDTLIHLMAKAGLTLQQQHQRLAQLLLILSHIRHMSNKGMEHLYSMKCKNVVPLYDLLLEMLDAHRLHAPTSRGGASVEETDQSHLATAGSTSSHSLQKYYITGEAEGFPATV
# Assay: In-cell western blot analysis of relative ER percentage (Compounds B1-B278)
# Type: cell-based
# Particulars: ER degradation, 16 hours, read-out: ICW DC50
# Procedure: In-cell western blot analysis. Cells are seeded in multi-well plates (e.g., at 40,000 or 10,000 cells/well). Diluted compounds at certain concentration are added (final 0.5% DMSO) and cells are incubated for […] (e.g., 16 hours). Formaldehyde (e.g., PBS:FA=9:1) is added and followed by washing with PBS. The cells are blocked with Licor blocking buffer (Li-Cor). […]
Observed property: DC50

C[C@@H]1Cc2c([nH]c3ccccc23)[C@@H](c2cnc(N3CCC4(CC3)CC(N3CCN5c6ccc7c(c6OC[C@H]5C3)CN(C3CCC(=O)NC3=O)C7=O)C4)nc2)N1CC(F)F (stereo partly drawn)
> 100 nM
COc1cc(N2CCC3(CC2)CC(CN2CCN4c5ccc6c(c5OC[C@H]4C2)CN(C2CCC(=O)NC2=O)C6=O)CO3)ccc1[C@@H]1c2[nH]c3ccccc3c2C[C@@H](C)N1CC(F)F (stereo partly drawn) [Compound B143]
< 10 nM
C[C@@H]1Cc2c([nH]c3ccccc23)[C@@H](c2cnc(N3CCC4(CCC(N5CCN6c7ccc8c(c7OC[C@H]6C5)CN(C5CCC(=O)NC5=O)C8=O)CC4)CC3)nc2)N1CC(C)(C)F (stereo partly drawn)
> 100 nM

###

# Study target: ER in MCF-7 cells (Homo sapiens (Human))
# Assay: In-cell western (ICW) ER degradation assay in MCF-7 cells (Compounds A1-A70)
# Type: cell-based
# Particulars: MCF7, read-out: MCF7 ICW Dmax (%)
# Experimental: ERa degradative activity of compounds can be assessed in MCF-7 and T47D Cells. MCF-7 and T47D cell are seeded and are subsequently treated with the compounds at certain concentrations (e.g., 0.02 to 300 nM). DMSO can be used as vehicle control. Cells are fixed and are blocked with Intercept (PBS) Blocking Buffer (e.g., Li—COR, Odyssey Blocking Buffer), and are stained with ER (e.g., 1:500, Cell signaling) primary antibody for overnight at cold room. […]
Structures can show the parent of a compound that is named as a salt.
Observed property: Dmax

C[C@H]1Cc2c([nH]c3ccccc23)[C@H](c2cnc(N3CCC4(CC3)C[C@@H](CN3CCN5c6cc7c(cc6OC[C@H]5C3)C(=O)N([C@@H]3CCC(=O)NC3=O)C7)CO4)nc2)N1CC(F)F [Compound A61]
50 to 75%
C[C@H]1Cc2c([nH]c3ccccc23)[C@H](c2cnc(N3CCC4(CC3)C[C@@H](CN3CCN5c6ccc7c(c6OC[C@@H]5C3)CN([C@@H]3CCC(=O)NC3=O)C7=O)CO4)nc2)N1CC(F)F [Compound A59, formate]
50 to 75%
C[C@H]1Cc2c([nH]c3ccccc23)[C@H](c2cnc(N3CCC4(CC3)C[C@@H](CN3CCN5c6cc7c(cc6OC[C@@H]5C3)C(=O)N([C@@H]3CCC(=O)NC3=O)C7)CO4)nc2)N1CC(F)F [Compound A68]
50 to 75%
COc1cc(N2CCC3(CCN(C(=O)CN4Cc5cnc(C(=O)N[C@H]6CCC(=O)NC6=O)cc5C4)CC3)CC2)ccc1[C@@H]1c2[nH]c3ccccc3c2C[C@@H](C)N1CC(F)F [Compound A50, formate]
50 to 75%
COc1cc(N2CCC(CN3CCN4c5ccc6c(c5OC[C@H]4C3)CN([C@H]3CCC(=O)NC3=O)C6=O)CC2)ccc1[C@@H]1c2[nH]c3ccccc3c2C[C@@H](C)N1CC(C)(C)F [Compound A49]
> 75%
COc1cc(N2CCC(CN3CCN4c5ccc(C(=O)NC6CCC(=O)NC6=O)nc5OC[C@H]4C3)CC2)ccc1[C@@H]1c2[nH]c3ccccc3c2C[C@@H](C)N1CC(F)F (stereo partly shown) [Compound A51, formate]
> 75%
COc1cc(N2CCC(CN3CCN4c5cc6c(cc5OC[C@H]4C3)C(=O)N([C@@H]3CCC(=O)NC3=O)C6)CC2)ccc1[C@@H]1c2[nH]c3ccccc3c2C[C@@H](C)N1CC(F)F [Compound A48]
> 75%

###

Property: Dmax; scope: individual compounds
# Study target: ER in T47D cells (Homo sapiens (Human))
# Assay: In-cell western (ICW) ER degradation assay in T47D cells (Compounds A1-A70)
# Assay type: cell-based
# Particulars: T47D, maximal ER degradation, T47D cells, 16 hrs treatment; read-out: T47D ICW Dmax (%)
Observed property: Dmax

COc1cc(N2CCC(CN3CCC(c4ccc(N[C@H]5CCC(=O)NC5=O)c(F)c4)CC3)CC2)ccc1[C@@H]1c2[nH]c3ccccc3c2C[C@@H](C)N1CC(F)F
25 to 50%
C[C@@H]1Cc2c([nH]c3ccccc23)[C@@H](c2cnc(N3CCC4(CC3)C[C@@H](CN3CCC(c5ccc(N[C@@H]6CCC(=O)NC6=O)cc5)CC3)CO4)nc2)N1CC(F)F
> 75%
C[C@@H]1Cc2c([nH]c3ccccc23)[C@@H](c2cnc(N3CCN(CC4CCN(c5ccc(N6CCC(=O)NC6=O)cc5)CC4)CC3)nc2)N1CC(F)F
< 25%
COc1cc(N2CCC(CN3CCN4c5cc6c(cc5OC[C@@H]4C3)C(=O)N([C@@H]3CCC(=O)NC3=O)C6)CC2)ccc1[C@H]1c2[nH]c3ccccc3c2C[C@H](C)N1CC(F)F
50 to 75%
C[C@@H]1Cc2c([nH]c3ccccc23)[C@H](c2cnc(N3CCC4(CC3)C[C@@H](CN3CCN5c6ccc(C(=O)N[C@H]7CCC(=O)NC7=O)nc6OC[C@H]5C3)CO4)nc2)N1CC(F)F
50 to 75%
COc1cc(N2CCC(CN3CCN(c4ccc(C5CCC(=O)NC5=O)cc4)CC3)CC2)ccc1[C@@H]1c2[nH]c3ccccc3c2C[C@@H](C)N1CC(F)F (stereo partly shown)
25 to 50%
C[C@H]1Cc2c([nH]c3ccccc23)[C@H](c2cnc(N3CCC4(CC3)C[C@H](CN3CCN5c6cc7c(cc6OC[C@@H]5C3)C(=O)N([C@@H]3CCC(=O)NC3=O)C7)CO4)nc2)N1CC(F)F
> 75%
C[C@@H]1Cc2c([nH]c3ccccc23)[C@@H](c2cnc(N3CCO[C@H](CN4CCN5c6cc7c(cc6OC[C@@H]5C4)C(=O)N(C4CCC(=O)NC4=O)C7)C3)nc2)N1CC(C)(C)F (stereo partly shown)
25 to 50%
COc1cc(N2CCC3(CCN(C(=O)CN4Cc5cc6c(cc5C4)C(=O)N(C4CCC(=O)NC4=O)C6=O)CC3)CC2)ccc1[C@@H]1c2[nH]c3ccccc3c2C[C@@H](C)N1CC(F)F (stereo partly shown)
> 75%
C[C@H]1Cc2c([nH]c3ccccc23)[C@H](c2cnc(N3CCC4(CC3)C[C@@H](CN3CCN5c6cc7c(cc6OC[C@H]5C3)C(=O)N([C@@H]3CCC(=O)NC3=O)C7)CO4)nc2)N1CC(F)F
50 to 75%
